# Tested on: E. faecium ATCC 19434
# Format: cell-based, Enterococcus faecium
# condition label: ATCC 19434, 18 h
Ends that are not written are not given here.
test readout: MIC (µM)
Entry rule: numbers only, all in µM.

Solved cases (4 shown):
{"query sequence": "RRIRFRPPRLPRPRPRPWIPPRFPFPRIPGKR [Bal1]", "units of measure": "µM", "MIC": 4}
{"query sequence": "RRIRIRPPRLPRPRPRPWFPPRFPIPRIPGKR [Lip1]", "units of measure": "µM", "MIC": 4}
{"query sequence": "RRIRPRPPRLPRPRPRPLPFPRPGPRPIPRPLPFP [Bac7(1-35), reference compound]", "units of measure": "µM", "MIC": 64}
{"query sequence": "RRIPFWPIPLRWQWPPPWFPPSFPIPRISRKR [Del1]", "units of measure": "µM", "MIC": 4}

Note to self: MIC recorded for RRIPFWPPNLPGPRRPPWFLPDFRIPRIPRKR [Orc1] was 16

----------
# Tested on: C. albicans ATCC 90029
# Assay type: cell-based, Candida albicans
# condition label: ATCC 90029, 18 h
Ends that are not written are not given here.
Entries and their measured MIC follow.
Just the number in µM, nothing appended.

Previously resolved entries follow.
{"query sequence": "RRIPFWPIPLRWQWPPPWFPPSFPIPRISRKR [Del1]", "test readout": "MIC", "measured value": 8}
{"query sequence": "RRIRFPFPPFPWQWPPAGF [Neo1]", "test readout": "MIC", "measured value": 32}
{"query sequence": "RRIRPRPPRLPRPRPRPLPFPRPGPRPIPRPLPFP [Bac7(1-35), reference compound]", "test readout": "MIC", "measured value": 2}

Test item RRIRFRPPRLPRPRPRPWIPPRFPFPRIPGKR [Bal1] ; C. albicans ATCC 90029; reported MIC was 1.5

Here RRIRIRPPRLPRPRPRPWFPPRFPIPRIPGKR [Lip1] was tested on C. albicans ATCC 90029, and its MIC came to 2

Summary line: RRIPFWPPNLPGPRRPPWFLPDFRIPRIPRKR [Orc1] , C. albicans ATCC 90029, reported MIC = 4
